# System: MS2 coat protein
# method description: apparent KD of MS2 coat protein; higher = weaker reporter binding
# run parameters: Eterna round: R107; input ligand: theophylline 20 uM
measure name: apparent KD of MS2 coat protein (nM)
Give bare numbers, in nM.

The examples below pair each entry with its known result.
{"residue codes": "AAAUAAAUACAUGAGGAUCACCCAUGUGAAGGAGCGGCCGUUAGGCCAGGUAGGUCGCGCAUGAAUAACUCCGUGCAAAAGCACA [MAT - Exclusion Arginine A - Mod of Eli - D18]", "units text": "nM", "observed": 16.9}
{"residue codes": "UGGCAAGAGGGAAGGAGCGUCAGCUGAGUCACAUGAGGAUCACCCAUGUCGCACAUAGUGUGACAGGUAGGUCGCCCUCUGCCGU [Vesosocera]", "units text": "nM", "observed": 152}
{"residue codes": "CUUAUAUAUACGGCCGCCACUUACUCAUGAGGUAACAACAUGAGGAUCACCCAUGUUUGAGGAUCAAGGACCGGGUAUAUAUAAG [AstrosSSTry#18]", "units text": "nM", "observed": 35.9}
{"residue codes": "AUGCUUGUCAGAAGGAGCGUCUUUAACAUGAGGAUCACCCAUGUAUCAUGGAAUUUGAUGAGACAGGUAGGUCGCUGAAUAGUAA [JR_SSArginiB_Sub021]", "units text": "nM", "observed": 42.7}
{"residue codes": "CGAUAUAAGACGGCCGCCACUAUUAAGUAACAAAAUAAACAUGAGGAUCACCCAUGUACAUGGGAUAGGACCGGGUCCAAUAACG [A1]", "units text": "nM", "observed": 163}

From here, focus on the item given below.
Lookup: Give apparent KD of MS2 coat protein for this entry on MS2 coat protein: AAGGGACAUGAGGAUCACCCAUGUACCGAAGGAGCGGCAGAGAUGCCAGGUAGGUCGCGGUACUUGCCGGGUCAUUCAUGCAAAA [Teanbe]
Found: 23.5
